Biological target: T1, human corticotrophin releasing hormone receptor type 2 (CRHR2) (human, UniProt Q13324 1-411)
T1 sequence (looked up): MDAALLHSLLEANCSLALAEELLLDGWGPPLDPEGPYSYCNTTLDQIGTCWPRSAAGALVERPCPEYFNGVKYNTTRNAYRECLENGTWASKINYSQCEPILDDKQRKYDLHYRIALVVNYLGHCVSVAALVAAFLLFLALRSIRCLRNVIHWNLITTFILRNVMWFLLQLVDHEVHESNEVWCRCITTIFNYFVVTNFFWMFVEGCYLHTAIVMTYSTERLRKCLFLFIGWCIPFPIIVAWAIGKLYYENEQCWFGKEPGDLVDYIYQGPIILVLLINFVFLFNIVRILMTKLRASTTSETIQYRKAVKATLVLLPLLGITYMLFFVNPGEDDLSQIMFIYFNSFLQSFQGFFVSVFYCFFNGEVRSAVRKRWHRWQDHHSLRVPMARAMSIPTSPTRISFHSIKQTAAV
Assay: cell-based or functional assay
Where no end group is shown, it is not given here.
// reported pA50 per item

Input: Name the reported pA50 value associated with the binder TKFTLSLDVPTNIMNCLFNIAKAKNLRAQAAANAHLMAQI (NES-PEG (about 20 kDa) on Cys 16; C-terminal amide (-NH2)) [Pegylated Cys-variant stresscopin-like peptide with NES linker and PEG about 20 kDa SEQ ID NO: 70]
Output: ~7.34 -log10(M)

Input: What value of measured pA50 is listed for TKFTLSLDVPTNIMNLLFNIAKAKNLRAQAAANAHLCAQI-NH2 [Cys-variant stresscopin-like peptide SEQ ID NO: 38] ?
Output: ~6.67 -log10(M)

Input: Data request, read-out pA50, for TKFTLSLDVPTNIMNLLFNIAKAKNLRCQAAANAHLMAQI (NES-PEG MW2000 on Cys 28; C-terminal amide (-NH2)) [Pegylated Cys-variant stresscopin-like peptide, NES-PEG MW2000, SEQ ID NO: 95]
Output: 9.31 -log10(M)
